The measurements presented in this section are drawn from ChEMBL document CHEMBL1649182.

protocol.notes: Displacement of Biocillin FL from Streptococcus pneumoniae 1077 PBP3
IC50: recorded values
Could you give the number and then its unit, please?

Completed entries (count: 3):
In [3]: df
Out[3]:
                                   compound      reading
0  C[C@@H](O)[C@H]1C(=O)N2C(C(=O)O)=C(SCCNC=N)C[C@H]12 [IMIPENEM ANHYDROUS]  0.219 µg/mL
1  C[C@@H](O)[C@H]1C(=O)N2C(C(=O)O)=C([C@H]3CCCO3)S[C@H]12 [FAROPENEM]  0.006 µg/mL
2  CC1(C)S[C@@H]2[C@H](NC(=O)Cc3ccccc3)C(=O)N2[C@H]1C(=O)O [PENICILLIN G]   0.01 µg/mL

Fill in: IC50 of CC1(C)S[C@@H]2[C@H](NC(=O)[C@H](N)c3ccc(O)cc3)C(=O)N2[C@H]1C(=O)O [AMOXICILLIN] is ___
0.022 µg/mL

Fill in: IC50 of CO/N=C(\C(=O)N[C@@H]1C(=O)N2C(C(=O)O)=C(COC(N)=O)CS[C@H]12)c1ccco1 [CEFUROXIME] is ___
0.071 µg/mL

====

test.system: Penicillin-binding protein 2x (Streptococcus pneumoniae serotype 4 (strain ATCC BAA-334 / TIGR4), UniProt P14677)
Sequence (P14677 whole entry): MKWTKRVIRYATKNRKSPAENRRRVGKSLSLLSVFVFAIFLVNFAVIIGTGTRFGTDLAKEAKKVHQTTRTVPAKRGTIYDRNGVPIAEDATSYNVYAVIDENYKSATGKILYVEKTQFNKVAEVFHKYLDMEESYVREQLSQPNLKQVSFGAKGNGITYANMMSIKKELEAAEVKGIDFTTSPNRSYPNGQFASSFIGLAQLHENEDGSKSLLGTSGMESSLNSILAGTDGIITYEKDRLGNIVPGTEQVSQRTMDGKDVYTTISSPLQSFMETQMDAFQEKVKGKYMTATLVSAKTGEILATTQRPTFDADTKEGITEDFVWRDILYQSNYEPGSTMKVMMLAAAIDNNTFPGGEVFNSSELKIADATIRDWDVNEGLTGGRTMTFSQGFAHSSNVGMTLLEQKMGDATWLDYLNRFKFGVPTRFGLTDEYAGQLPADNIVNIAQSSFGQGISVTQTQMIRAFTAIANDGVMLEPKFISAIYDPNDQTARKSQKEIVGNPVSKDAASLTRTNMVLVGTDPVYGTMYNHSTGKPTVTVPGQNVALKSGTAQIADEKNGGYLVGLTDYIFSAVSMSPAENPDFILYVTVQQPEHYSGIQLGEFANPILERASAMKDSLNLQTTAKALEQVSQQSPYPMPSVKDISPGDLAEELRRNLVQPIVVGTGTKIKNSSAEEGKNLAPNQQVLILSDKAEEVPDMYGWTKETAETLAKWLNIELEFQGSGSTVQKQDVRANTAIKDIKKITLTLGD
protocol.notes: Displacement of Biocillin FL from Streptococcus pneumoniae 2527 PBP2X
measured.property: IC50 (nM)
Please give a number only; it is taken to be in nM.

>>> df
                                   compound  measured_property  unit_annotation  reading
0  CC1(C)S[C@@H]2[C@H](NC(=O)Cc3ccccc3)C(=O)N2[C@H]1C(=O)O               IC50               nM     26.9
1  C[C@@H](O)[C@H]1C(=O)N2C(C(=O)O)=C([C@H]3CCCO3)S[C@H]12               IC50               nM      116
2  CC1(C)S[C@@H]2[C@H](NC(=O)[C@H](N)c3ccc(O)cc3)C(=O)N2[C@H]1C(=O)O               IC50               nM     10.9
3  CO/N=C(\C(=O)N[C@@H]1C(=O)N2C(C(=O)O)=C(COC(N)=O)CS[C@H]12)c1ccco1               IC50               nM     7.07

Moving on to the next compound.
Fill in: IC50 of C[C@@H](O)[C@H]1C(=O)N2C(C(=O)O)=C(SCCNC=N)C[C@H]12 [IMIPENEM ANHYDROUS] is ___
60.1

====

protocol.notes: Displacement of Biocillin FL from Streptococcus pneumoniae 3413 PBP3
Field: label. Allowed values: fulfilled (IC50 < 0.01 µg/mL) or not fulfilled (IC50 >= 0.01 µg/mL).

Hello, is IC50 of the following compound strictly smaller than 0.01 µg/mL? CC1(C)S[C@@H]2[C@H](NC(=O)[C@H](N)c3ccc(O)cc3)C(=O)N2[C@H]1C(=O)O
not fulfilled

Hello, is IC50 of the following compound strictly smaller than 0.01 µg/mL? C[C@@H](O)[C@H]1C(=O)N2C(C(=O)O)=C([C@H]3CCCO3)S[C@H]12
fulfilled

Hello, is IC50 of the following compound strictly smaller than 0.01 µg/mL? CO/N=C(\C(=O)N[C@@H]1C(=O)N2C(C(=O)O)=C(COC(N)=O)CS[C@H]12)c1ccco1
fulfilled

Hello, is IC50 of the following compound strictly smaller than 0.01 µg/mL? C[C@@H](O)[C@H]1C(=O)N2C(C(=O)O)=C(SCCNC=N)C[C@H]12 [IMIPENEM ANHYDROUS]
not fulfilled
